Source of measurements: ChEMBL document CHEMBL3507680

test: Human HepG2 cell viability assay in 384 well format; assay type: toxicity, cell-based; parameters: dose 125 nL, time 70.5 hour; concentration not given beside the values; conditions: HepG2 cells, read-out: Inhibition
Each entry below carries its reported cytotoxicity at 70.5 h.

| Compound | cytotoxicity at 70.5 h, % |
| --- | --- |
| CNc1nccnc1C1CN(Cc2ccc3[nH]ccc3c2)CCO1 (configuration not stated) | -2.11 |
| COc1cccc(CN2CCC3(CC2)CCN(c2ncc(C)cn2)C3)c1 | -0.283 |
| CC(C)C1CN(C(=O)c2cn3cc(Cl)cnc3n2)CCCN1CC1CC1 (configuration not stated) | 20.2 |
| c1cnc(N2CCN(CCn3ccnc3-c3ccncc3)CC2)nc1 | 12.5 |
| CCCn1ncc(C(=O)N(C)Cc2n[nH]c3c2CCC3)c1C | -11.7 |
| O=C(c1ccnnc1)N1C[C@H](OCC2CC2)[C@H]2COC[C@H]21 | -13.5 |
| CS(=O)(=O)N1C[C@@H](O)[C@H](N2CCN(c3ccccc3)CC2)C1 | 22.6 |

* * *

experiment: Human HepG2 cell viability assay in 384 well format; format: toxicity, cell-based; design: dose 125 nL, time 70.5 hour; concentration not given beside the values; settings: HepG2 cells, read-out: Inhibition
Each entry below carries its reported cytotoxicity at 70.5 h.
Quantity Measured: cytotoxicity at 70.5 h (%)

| Molecule | Observed Result |
| --- | --- |
| CCCN1CCC(Nc2cc(-c3ccccc3)ccc2OC)CC1 | 0.639 |
| CC(=O)NCC(=O)N1CCC2(COCc3c(C)nc(N(C)C)nc32)C1 (configuration not stated) | -6.64 |
| CCC1CN(C(=O)c2cccc(O)c2)CCC(=O)N1Cc1ccccc1 (configuration not stated) | 0.303 |
| CC(C)NC(=O)C1CN(C(=O)c2ccccc2)CC12CCOCC2 (configuration not stated) | -5.57 |
| COCCCn1ccc(NCc2ccc(NC(C)=O)cc2)n1 | -6.7 |
| c1ccc(C2=NOC3(CCN(Cc4c[nH]c5ccccc45)CC3)C2)cc1 | 11.1 |
| NC(=O)Cn1cc(NC(=O)N2CCN(c3ccc(F)cc3)CC2)cn1 | 8.67 |
| CC(C)(O)CCc1ccc(C(=O)NCCC2CCCOC2)cc1 (configuration not stated) | -0.926 |
| CC(=O)Nc1cc2c(cc1C)OCO2 | 21.5 |
| Cc1nn(C)c(N2CCOCC2)c1CNCc1ccoc1C | -11.3 |
| CCCc1nc(C)c(C(=O)NS(=O)(=O)c2ccc(C#N)cc2)s1 | -5.99 |
| OC1(CN2CCCC2)CCCN(Cc2c[nH]c(CC3CCCC3)n2)C1 (configuration not stated) | -4.13 |

* * *

test: Human HepG2 cell viability assay in 384 well format; format: toxicity, cell-based; set-up: dose 125 nL, time 70.5 hour; concentration not given beside the values; conditions: HepG2 cells, read-out: Inhibition
Each entry below carries its reported cytotoxicity at 70.5 h.

| Compound | cytotoxicity at 70.5 h (%) |
| --- | --- |
| CCOc1ccccc1N1CCN(C(=O)NCc2cc[nH]n2)CC1 | 18.3 |
| CNc1nc2c(s1)C(c1cccc(Cl)c1Cl)CC(=O)N2 (configuration not stated) | -8.56 |
| COC(=O)c1ccc(Cn2nc(C)cc2C)cc1 | 12.9 |
| Cn1ccnc1CN1CCC2(CC(=O)N(c3ccc4c(c3)OCO4)C2)C1 (configuration not stated) | -17.1 |
| O=C(N1CCOCC1)N1CCC(Nc2ccncn2)CC1 | -7.28 |
| Cn1nc(C2CNCCO2)cc1CCOc1ccc(Cl)cc1 (configuration not stated) | 7.97 |
| CN(CC1(O)CCCN(CCC2CCCCC2)C1=O)C1CCOCC1 (configuration not stated) | -5.64 |
| CS(=O)(=O)c1ccc(CN2CCCCC2c2cccc(F)c2)cc1 (configuration not stated) | -9.66 |
| O=C(NC1CCC1)C1=NOC2(CCN(Cc3ccccc3)C2)C1 (configuration not stated) | -10.6 |
| COCCCN1C(=O)CC[C@H]2CN(c3nc4ccccc4s3)CC[C@H]21 | -3.23 |
| O=C(c1ccc(N2CCOCC2)nc1)N1CCCC(n2ccnc2)C1 (configuration not stated) | -3.02 |
| Cc1n[nH]c(C2CN(C(=O)c3cc(C4CC4)on3)CCO2)n1 (configuration not stated) | 17 |
| CN1CC(=O)N(c2cccnc2)Cc2c(NC3CC3)ncnc21 | -0.235 |
| CCn1nc(C)c(CN(CCOC)Cc2ccccn2)c1C | -6.94 |
| CC(C)c1cc(NC(CO)CO)n2nccc2n1 | -10.2 |
| Cc1c(CN2CCC(C(=O)O)(n3cccn3)CC2)oc2ccccc12 | -2.29 |
| CC(c1ccc(C(=O)NCCc2nc(N)cc(O)n2)o1)N1CCCCC1 (configuration not stated) | -3.9 |

* * *

experiment: Human HepG2 cell viability assay in 384 well format; assay type: toxicity, cell-based; set-up: dose 125 nL, time 70.5 hour; concentration not given beside the values; conditions: HepG2 cells, read-out: Inhibition
Quantity Measured: cytotoxicity at 70.5 h (%)

| Molecule | Quantity Measured | Observed Result |
| --- | --- | --- |
| CN(Cc1ncc[nH]1)CC1CCOc2ccccc2C1 (centres undefined) | cytotoxicity at 70.5 h | 2.48 |
| O=C(Cc1ccc(F)cc1)N1CCn2c(Cn3cncn3)cnc2C1 | cytotoxicity at 70.5 h | -1.65 |
| CN(C)[C@@H]1CN(Cc2cccnc2)C[C@H]1c1cn(C)c2ccccc12 | cytotoxicity at 70.5 h | -2.36 |
| CCn1ccnc1CN1CCC(CCC(=O)Nc2ccccc2Cl)CC1 | cytotoxicity at 70.5 h | 11.7 |
| CCc1nc2c(c(N(C)Cc3nncn3CCOC)n1)CCNCC2 | cytotoxicity at 70.5 h | -8.26 |
| Cc1ccc(-n2nnc(C(=O)NCC3(CO)CC3)c2C2CC2)cc1 | cytotoxicity at 70.5 h | -4.67 |
| COc1ccc(CN2CCCn3nnc(COCC4CC4)c3C2)cc1 | cytotoxicity at 70.5 h | -12.2 |
| CN(C)CC(=O)N1CCOCC2(C1)CN(c1ccccc1)C(=O)CO2 (centres undefined) | cytotoxicity at 70.5 h | -45.3 |
| O=C1CC(c2ccccc2Br)c2sc(N3CCOCC3)nc2N1 (centres undefined) | cytotoxicity at 70.5 h | 2.49 |
| CC(C)n1ccnc1CN1CCOC(C)(C(=O)N2CCOCC2)C1 (centres undefined) | cytotoxicity at 70.5 h | -5.02 |
| CCc1nn(-c2cc(Oc3cccc(C)c3)nc(C)n2)c(N)c1C#N | cytotoxicity at 70.5 h | -8.17 |
| CS(=O)(=O)N1CC2(CCN(C3CCCCC3)C2)Cc2ccccc21 (centres undefined) | cytotoxicity at 70.5 h | 0.278 |
| CCN1CCOCC2(CCCN(c3nncs3)C2)C1 (centres undefined) | cytotoxicity at 70.5 h | -2.2 |
| Cc1nc2cc(C(=O)N(CCN(C)C)CCN(C)C)ccc2n1C | cytotoxicity at 70.5 h | -7.57 |
| COCc1nc(C2CC2)nn1-c1cccc(F)c1 | cytotoxicity at 70.5 h | -7.42 |
| Cc1cc(CN2CCN(C(=O)CCc3cccc(F)c3F)CC2)on1 | cytotoxicity at 70.5 h | -6.52 |
| Cc1ccc(CN2CCC3(CC2)CC3CN(C)Cc2cccnc2)o1 (centres undefined) | cytotoxicity at 70.5 h | -5.02 |
| OCC1CCCN(c2ncnc3c2Cc2ccccc2OC3)C1 (centres undefined) | cytotoxicity at 70.5 h | -5.22 |
| Cc1nc(CNC2CCc3nc(C(C)C)nn3C2)oc1C (centres undefined) | cytotoxicity at 70.5 h | -4.84 |
| Cc1ccc(CN2C[C@@H]3COC[C@H](NS(C)(=O)=O)[C@@H]3C2)o1 | cytotoxicity at 70.5 h | -12.4 |
| CN(C)C(=O)C1CCCN1CCCNC(=O)c1ccccc1Cl (centres undefined) | cytotoxicity at 70.5 h | 4.52 |
| O=C(NCc1cn2c(n1)CN(CC1CCOCC1)CC2)C1CCC1 | cytotoxicity at 70.5 h | -2.34 |
| CC1CCCN(CCNC(=O)c2scnc2Cl)C1 (centres undefined) | cytotoxicity at 70.5 h | -7.04 |
| COc1ccc(C(=O)C2CCCN(c3cc(N)ncn3)C2)c(C)c1 (centres undefined) | cytotoxicity at 70.5 h | -10.4 |
| CC1CCN(Cc2cc(=O)[nH]c(=O)[nH]2)CC1 | cytotoxicity at 70.5 h | 8.26 |
| COc1ccc(CN2CCO[C@H]3CN(C4CCCC4)CC[C@H]3C2=O)cc1 | cytotoxicity at 70.5 h | -1.08 |
| COc1c(C2CCCN2C(=O)c2c(C)noc2C(C)C)c(C)nn1C (centres undefined) | cytotoxicity at 70.5 h | -4.7 |
| CNc1ccnc(NCC(=O)Nc2cc(C)ccc2OC)n1 | cytotoxicity at 70.5 h | -5.67 |
| COc1cccc(OC)c1CC(=O)NC(C#N)c1ccsc1 (centres undefined) | cytotoxicity at 70.5 h | -12.5 |
| CNC(=O)c1ccc(S(=O)(=O)NCCc2ccccn2)cc1 | cytotoxicity at 70.5 h | 1.59 |
| CCOc1ncnc2c1CCN(Cc1cccs1)CC2 | cytotoxicity at 70.5 h | -8.1 |
| Fc1cnc(N2CCCn3c(nnc3Cn3cccn3)C2)nc1 | cytotoxicity at 70.5 h | 12.7 |
| CC(C)n1cc(CN2CCCN(C(=O)C(C)n3cncn3)CC2)cn1 (centres undefined) | cytotoxicity at 70.5 h | 3.68 |
| Cn1c(=O)cc(C(=O)NC(Cc2ccsc2)c2cccnc2)[nH]c1=O (centres undefined) | cytotoxicity at 70.5 h | -3.19 |
| c1cc(CN2CCc3c(CN4CCCC4)n[nH]c3C2)ccn1 | cytotoxicity at 70.5 h | 23.4 |
| CN(C)C(=O)N1CCC2(CCC(C(=O)N3CCCC3)O2)CC1 (centres undefined) | cytotoxicity at 70.5 h | -16.3 |
| Cc1cc(CS(=O)(=O)NC2CCCc3ccccc32)on1 (centres undefined) | cytotoxicity at 70.5 h | -1.17 |
| O=C(O)c1cn(CC2CCCN(c3nc4ccccc4s3)C2)nn1 (centres undefined) | cytotoxicity at 70.5 h | 20.3 |
| CCN(CC)CCN1CCO[C@H]2[C@@H](OCc3ccncc3)CC[C@@H]21 | cytotoxicity at 70.5 h | -1.93 |
